Target: human TRPC6 (Homo sapiens)
Construct: expressed in transfected cells; host or cells: HEK 293
Assay: TRPC6 fluorescence-based assay (Ca2+ flux assay in FLIPR format), cells overexpressing TRPC6
Type: cell-based
Settings: 5 μM of test compound, following Carbachol stimulation
Respond with t for inhibition at 5 µM values of 40% and above, f for values below.

- O=C(Cn1c(NCCCO)nc2ccccc21)C12CC3CC(CC(C3)C1)C2: f
- CCC(=O)NCCc1nc2ccccc2n1Cc1ccc(F)cc1: f
- C=C(C)Cn1c(-c2ccc(N(C)C)cc2)nc2ccccc21: t

# evaluate next
Check this molecule for inhibition at 5 µM at or above 40%: `CCCn1c(COc2ccccc2)nc2ccccc21`
f

----------
Below: a set of entries, each annotated with reported inhibition at 5 µM.
Biological target: human TRPC5 (Homo sapiens, UniProt Q9UL62)
Construct: expressed in transfected cells; host or cells: HEK 293
Sequence (Q9UL62 whole entry): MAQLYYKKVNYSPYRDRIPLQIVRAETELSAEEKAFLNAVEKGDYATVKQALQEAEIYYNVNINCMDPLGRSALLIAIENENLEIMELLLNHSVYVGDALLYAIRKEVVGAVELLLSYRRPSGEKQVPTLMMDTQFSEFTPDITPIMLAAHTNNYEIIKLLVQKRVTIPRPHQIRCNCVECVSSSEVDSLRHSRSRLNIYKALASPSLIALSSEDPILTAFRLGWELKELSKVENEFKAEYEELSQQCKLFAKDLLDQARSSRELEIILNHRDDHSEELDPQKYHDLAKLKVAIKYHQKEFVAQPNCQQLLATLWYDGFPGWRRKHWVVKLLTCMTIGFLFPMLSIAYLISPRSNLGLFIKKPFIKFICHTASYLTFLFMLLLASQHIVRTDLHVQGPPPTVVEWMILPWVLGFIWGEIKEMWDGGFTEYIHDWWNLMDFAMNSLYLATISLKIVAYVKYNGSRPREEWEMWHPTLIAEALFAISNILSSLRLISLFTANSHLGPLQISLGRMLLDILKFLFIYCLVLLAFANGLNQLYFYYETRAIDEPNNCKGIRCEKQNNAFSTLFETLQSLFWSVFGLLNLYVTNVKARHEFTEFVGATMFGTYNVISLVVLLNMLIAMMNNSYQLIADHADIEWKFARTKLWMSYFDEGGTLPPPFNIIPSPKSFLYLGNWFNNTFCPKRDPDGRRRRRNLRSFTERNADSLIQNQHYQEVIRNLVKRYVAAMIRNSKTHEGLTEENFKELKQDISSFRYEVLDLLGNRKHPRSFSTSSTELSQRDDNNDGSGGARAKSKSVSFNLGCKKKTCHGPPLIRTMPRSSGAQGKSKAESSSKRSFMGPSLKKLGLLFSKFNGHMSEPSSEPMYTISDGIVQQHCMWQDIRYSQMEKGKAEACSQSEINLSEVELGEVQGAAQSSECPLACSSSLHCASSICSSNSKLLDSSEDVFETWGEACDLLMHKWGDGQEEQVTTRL
Assay: TRPC5 fluorescence-based assay (Ca2+ flux assay in FLIPR format), cells overexpressing TRPC5
Type: cell-based
Conditions: 5 μM of test compound, following Carbachol stimulation
Use % as the unit, but write only the number.

Please review the entries below; each comes with its answer.
* CCCCCCn1c(NCc2ccccc2O)nc2ccccc21 | 61.3
* Cc1ccc(Cn2c(C(C)(C)C)nc3ccccc32)cc1 | 39.7
* COCc1ccccc1Cn1cnc2ccccc21 | 61.3
* CCn1c(NCc2cc(C)ccc2O)nc2ccccc21 | 51.8

// map `COc1ccc(/C=N/c2nc3ccccc3n2Cc2ccc(C)cc2)cc1` to recorded inhibition at 5 µM (system: human TRPC5 (Homo sapiens, UniProt Q9UL62))
53.4

----------
Target: human TRPC6 (Homo sapiens)
Construct: expressed in transfected cells; host or cells: HEK 293
Sequence (Q9Y210 1-931): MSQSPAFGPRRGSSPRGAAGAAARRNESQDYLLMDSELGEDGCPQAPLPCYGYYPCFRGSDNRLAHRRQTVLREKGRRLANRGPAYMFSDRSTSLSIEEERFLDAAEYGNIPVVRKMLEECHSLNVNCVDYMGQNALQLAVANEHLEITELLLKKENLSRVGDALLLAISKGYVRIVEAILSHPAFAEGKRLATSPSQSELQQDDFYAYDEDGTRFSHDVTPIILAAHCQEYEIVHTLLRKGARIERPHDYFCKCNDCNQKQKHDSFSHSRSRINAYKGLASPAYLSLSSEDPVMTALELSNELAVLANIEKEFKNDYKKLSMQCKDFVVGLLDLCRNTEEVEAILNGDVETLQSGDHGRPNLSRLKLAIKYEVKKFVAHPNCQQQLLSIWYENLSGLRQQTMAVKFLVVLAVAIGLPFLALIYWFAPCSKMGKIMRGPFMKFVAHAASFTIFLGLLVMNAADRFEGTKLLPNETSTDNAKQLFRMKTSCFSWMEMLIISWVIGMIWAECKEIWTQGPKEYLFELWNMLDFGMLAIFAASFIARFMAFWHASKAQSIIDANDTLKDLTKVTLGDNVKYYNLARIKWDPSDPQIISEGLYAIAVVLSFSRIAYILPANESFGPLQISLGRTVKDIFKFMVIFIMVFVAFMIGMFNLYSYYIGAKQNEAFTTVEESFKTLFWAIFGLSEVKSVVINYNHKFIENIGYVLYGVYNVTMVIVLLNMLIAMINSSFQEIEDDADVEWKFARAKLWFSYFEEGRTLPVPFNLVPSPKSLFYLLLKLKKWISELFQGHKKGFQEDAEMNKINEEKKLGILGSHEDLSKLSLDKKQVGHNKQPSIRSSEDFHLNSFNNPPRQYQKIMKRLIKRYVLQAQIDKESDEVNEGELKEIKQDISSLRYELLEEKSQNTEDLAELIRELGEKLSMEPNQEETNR
Assay: TRPC6 fluorescence-based assay (Ca2+ flux assay in FLIPR format), cells overexpressing TRPC6
Type: cell-based
Conditions: 5 μM of test compound, following Carbachol stimulation
Property measured: inhibition at 5 µM
Record the result as number plus unit.

The examples below pair each entry with its known result.
• OCCNc1nc2ccccc2n1CCOc1ccccc1 = 8.36%
• CCCn1c(NCc2ccc(N(CC)CC)cc2)nc2ccccc21 = 74.7%
• CCCCn1c(NCc2ccc(N(CC)CC)cc2)nc2ccccc21 = 30.3%
• CCCn1c(-c2ccc(Br)cc2)nc2ccccc21 = 82.8%
• CC(C)(C)C(=O)NCCc1nc2ccccc2n1Cc1ccc(Cl)cc1 = -7.07%

Look up inhibition at 5 µM for this molecule: `CCn1c(Cc2ccc(OC)c(OC)c2)nc2ccccc21`
94%

Which measured inhibition at 5 µM value corresponds to `CCN(CC)CCn1c(NCc2ccc(Cl)cc2)nc2ccccc21` ?
57.1%
